molecular target: human CXCR4 (human, UniProt P61073 1-352); experiment: cell-based or functional assay
Sequence (P61073 whole entry): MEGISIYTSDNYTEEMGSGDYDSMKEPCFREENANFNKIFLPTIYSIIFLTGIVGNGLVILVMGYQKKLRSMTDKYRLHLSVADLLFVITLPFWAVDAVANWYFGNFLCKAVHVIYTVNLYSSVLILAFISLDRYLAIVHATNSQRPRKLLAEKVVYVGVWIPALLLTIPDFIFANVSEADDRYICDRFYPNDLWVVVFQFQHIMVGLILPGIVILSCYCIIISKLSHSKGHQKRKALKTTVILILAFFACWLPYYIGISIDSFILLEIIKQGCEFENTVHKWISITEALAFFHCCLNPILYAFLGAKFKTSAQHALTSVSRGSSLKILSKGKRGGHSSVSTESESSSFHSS
Bridges are numbered along the chain shown (N, C = ends). [ ]: non-standard residue; d: D form. 2Nal = N[C@@H](Cc1ccc2ccccc2c1)C(=O)O; Cit = NC(=O)NCCC[C@H](N)C(=O)O

>  <binder>
cyclo(YR[Cit]CRG[dP]RR[2Nal]CYDK[dP]P) (disulfide 4-11; SMILES N=C(N)NCCC[C@@H]1NC(=O)[C@@H]2CSSC[C@H](NC(=O)[C@H](Cc3ccc4ccccc4c3)NC(=O)[C@H](CCCNC(=N)N)NC(=O)[C@H](CCCNC(=N)N)NC(=O)[C@H]3CCCN3C(=O)CNC1=O)C(=O)N[C@@H](Cc1ccc(O)cc1)C(=O)N[C@@H](CC(=O)O)C(=O)N[C@@H](CCCCN)C(=O)N1CCC[C@@H]1C(=O)N1CCC[C@H]1C(=O)N[C@@H](Cc1ccc(O)cc1)C(=O)N[C@@H](CCCNC(=N)N)C(=O)N[C@@H](CCCNC(N)=O)C(=O)N2) [Example 78]

>  <IC50 (nM) Ca2+ assay (method 2)>
11

$$$$
>  <binder>
cyclo(YR[Cit]CRG[dP]RRYC[Cit]YK[dP]P) (disulfide 4-11; SMILES N=C(N)NCCC[C@@H]1NC(=O)[C@@H]2CSSC[C@H](NC(=O)[C@H](Cc3ccc(O)cc3)NC(=O)[C@H](CCCNC(=N)N)NC(=O)[C@H](CCCNC(=N)N)NC(=O)[C@H]3CCCN3C(=O)CNC1=O)C(=O)N[C@@H](CCCNC(N)=O)C(=O)N[C@@H](Cc1ccc(O)cc1)C(=O)N[C@@H](CCCCN)C(=O)N1CCC[C@@H]1C(=O)N1CCC[C@H]1C(=O)N[C@@H](Cc1ccc(O)cc1)C(=O)N[C@@H](CCCNC(=N)N)C(=O)N[C@@H](CCCNC(N)=O)C(=O)N2) [Example 113]

>  <IC50 (nM) Ca2+ assay (method 2)>
0.62

$$$$
>  <binder>
cyclo(VR[Cit]CRG[dP]RR[2Nal]CYQK[dP]P) (disulfide 4-11; SMILES CC(C)[C@@H]1NC(=O)[C@@H]2CCCN2C(=O)[C@H]2CCCN2C(=O)[C@H](CCCCN)NC(=O)[C@H](CCC(N)=O)NC(=O)[C@H](Cc2ccc(O)cc2)NC(=O)[C@@H]2CSSC[C@H](NC(=O)[C@H](CCCNC(N)=O)NC(=O)[C@H](CCCNC(=N)N)NC1=O)C(=O)N[C@@H](CCCNC(=N)N)C(=O)NCC(=O)N1CCC[C@@H]1C(=O)N[C@@H](CCCNC(=N)N)C(=O)N[C@@H](CCCNC(=N)N)C(=O)N[C@@H](Cc1ccc3ccccc3c1)C(=O)N2) [Example 90]

>  <IC50 (nM) Ca2+ assay (method 2)>
19.5

$$$$
